- test_target: ROS (Homo sapiens, UniProt P08922)
- Sequence (P08922 28-2347): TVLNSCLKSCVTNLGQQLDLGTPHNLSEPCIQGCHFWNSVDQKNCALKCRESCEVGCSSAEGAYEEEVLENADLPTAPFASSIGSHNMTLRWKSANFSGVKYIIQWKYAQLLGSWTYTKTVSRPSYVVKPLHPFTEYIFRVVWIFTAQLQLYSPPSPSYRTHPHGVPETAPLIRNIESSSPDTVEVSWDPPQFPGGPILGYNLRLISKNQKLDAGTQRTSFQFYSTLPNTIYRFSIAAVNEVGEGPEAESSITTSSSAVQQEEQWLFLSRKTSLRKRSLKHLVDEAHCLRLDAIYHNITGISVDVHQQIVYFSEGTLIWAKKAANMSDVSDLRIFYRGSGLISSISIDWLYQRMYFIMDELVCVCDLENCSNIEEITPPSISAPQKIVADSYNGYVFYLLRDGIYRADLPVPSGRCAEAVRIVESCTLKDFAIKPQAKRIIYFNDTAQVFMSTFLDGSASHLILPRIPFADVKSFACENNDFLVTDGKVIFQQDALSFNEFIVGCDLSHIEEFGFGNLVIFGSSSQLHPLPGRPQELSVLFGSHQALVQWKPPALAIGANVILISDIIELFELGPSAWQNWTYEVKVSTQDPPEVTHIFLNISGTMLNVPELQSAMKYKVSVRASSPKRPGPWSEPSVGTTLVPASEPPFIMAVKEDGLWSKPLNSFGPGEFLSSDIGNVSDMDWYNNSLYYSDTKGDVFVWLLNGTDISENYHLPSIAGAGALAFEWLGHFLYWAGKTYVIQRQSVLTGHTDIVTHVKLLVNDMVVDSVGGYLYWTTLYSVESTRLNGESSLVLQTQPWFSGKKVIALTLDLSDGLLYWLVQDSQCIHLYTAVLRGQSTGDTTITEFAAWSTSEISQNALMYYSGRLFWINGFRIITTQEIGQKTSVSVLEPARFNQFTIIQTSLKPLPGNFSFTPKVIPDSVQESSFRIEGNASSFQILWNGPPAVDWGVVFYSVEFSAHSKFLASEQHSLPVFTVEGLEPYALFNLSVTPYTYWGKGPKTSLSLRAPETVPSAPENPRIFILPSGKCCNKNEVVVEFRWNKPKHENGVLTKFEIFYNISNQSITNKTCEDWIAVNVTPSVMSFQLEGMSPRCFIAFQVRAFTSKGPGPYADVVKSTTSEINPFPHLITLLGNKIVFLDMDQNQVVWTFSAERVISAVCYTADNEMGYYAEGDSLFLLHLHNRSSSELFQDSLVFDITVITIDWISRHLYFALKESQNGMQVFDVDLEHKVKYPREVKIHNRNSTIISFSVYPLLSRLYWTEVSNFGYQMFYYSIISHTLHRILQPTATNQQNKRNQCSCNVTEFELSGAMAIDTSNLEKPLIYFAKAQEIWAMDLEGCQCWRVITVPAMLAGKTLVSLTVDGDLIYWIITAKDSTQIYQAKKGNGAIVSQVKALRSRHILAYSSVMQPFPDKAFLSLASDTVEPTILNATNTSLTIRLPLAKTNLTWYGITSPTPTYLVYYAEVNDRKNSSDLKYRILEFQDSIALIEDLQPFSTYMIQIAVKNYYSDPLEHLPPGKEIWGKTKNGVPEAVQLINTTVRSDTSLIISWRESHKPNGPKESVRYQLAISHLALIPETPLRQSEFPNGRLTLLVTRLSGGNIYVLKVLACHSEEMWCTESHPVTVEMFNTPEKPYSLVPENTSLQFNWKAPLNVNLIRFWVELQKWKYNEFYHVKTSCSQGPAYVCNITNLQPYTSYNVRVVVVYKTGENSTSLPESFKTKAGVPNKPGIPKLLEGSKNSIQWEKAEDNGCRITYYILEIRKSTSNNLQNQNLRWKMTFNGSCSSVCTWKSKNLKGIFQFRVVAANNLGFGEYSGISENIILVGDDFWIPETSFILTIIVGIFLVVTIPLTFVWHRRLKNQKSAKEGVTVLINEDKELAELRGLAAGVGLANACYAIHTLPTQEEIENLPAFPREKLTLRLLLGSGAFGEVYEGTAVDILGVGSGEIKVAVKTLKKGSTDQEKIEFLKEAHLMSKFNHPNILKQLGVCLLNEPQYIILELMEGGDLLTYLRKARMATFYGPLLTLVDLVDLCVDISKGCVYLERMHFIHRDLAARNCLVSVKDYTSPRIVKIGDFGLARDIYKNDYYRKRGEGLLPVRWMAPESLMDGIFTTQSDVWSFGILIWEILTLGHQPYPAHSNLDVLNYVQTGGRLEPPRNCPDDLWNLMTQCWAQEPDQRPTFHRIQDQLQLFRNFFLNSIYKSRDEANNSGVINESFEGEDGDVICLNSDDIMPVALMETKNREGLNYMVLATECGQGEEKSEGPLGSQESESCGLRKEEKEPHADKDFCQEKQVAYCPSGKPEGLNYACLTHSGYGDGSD
- assay_protocol: In vitro ROS enzymatic reaction assay (HTRF, Cisbio)
- Assay type: biochemical
- Design: ROS or EGFR enzyme, 0.008 ng/ul
- condition_parameters: ROS kinase, compound at 5 uM; read-out: Kinase Inhib. 5 uM (%)
inhibition at 5 µM listing for selected molecules.
I only need the number, in %, no unit after it.

Entry CCC(C)(C)NC(=O)c1cccc(Nc2nccc(Nc3ccc4ncsc4c3)n2)c1 [drawing 243] , inhibition at 5 µM reported as 101

// recorded inhibition at 5 µM for O=C(NCc1cccs1)c1cccc(Nc2nccc(Nc3ccc4ncsc4c3)n2)c1 [drawing 273] : 101

Data point: O=C(O)c1ccc(Nc2ncc(Cl)c(Nc3ccc4ncsc4c3)n2)cc1 [drawing 308] ; inhibition at 5 µM = 101

inhibition at 5 µM reported for this molecule CC(C)c1nc(Nc2ccc(C(=O)NCc3ccccc3)cc2)nc(Nc2cccc(Cc3nc4ccccc4s3)c2)n1 [drawing 316] : 45.1

For CC(C)c1nc(Nc2ccc(C(=O)NCC3CCCCC3)cc2)nc(Nc2cccc(Cc3nc4ccccc4s3)c2)n1 [drawing 317] the molecule record lists inhibition at 5 µM as 25.3

Entry CC(C)c1nc(Nc2ccc3ncsc3c2)nc(N2CCCC2)n1 [drawing 314] ; inhibition at 5 µM = 20.9

Recorded result, COc1cccc(Nc2cc(Nc3cccc(C(=O)N4CCN(C(C)=O)CC4)c3)nc(N)n2)c1 [drawing 240] , inhibition at 5 µM: 22.3

Note to self: inhibition at 5 µM recorded for O=C(O)c1cccc(Nc2ncc(Cl)c(Nc3ccc4ncsc4c3)n2)c1 [drawing 325] was 100

---

- System: HeLa cervical cancer cell line
- assay_protocol: In-vitro cell survival assay (Alamar blue), HeLa
- Format: cell-based
- condition_parameters: Homo sapiens, 24 h, one day after compound addition
quantity_name: EC50 (µM)
Write the answer as a number in µM, unit excluded.

Bench note, HeLa cervical cancer cell line: entry O=C(NNc1cc(C(F)(F)F)ccc1Cl)c1cccnc1Oc1ccccc1 [drawing 390] , its EC50 = 59

---
// compound O=C(NCc1ccco1)c1cccc(Nc2nccc(Nc3ccc4ncsc4c3)n2)c1 [drawing 376] , assay HeLa cervical cancer cell line, EC50 value: 10

Lab note: compound O=C(NCC(c1cccs1)S(=O)(=O)c1ccc(F)cc1)c1ccccc1 (centres unmarked) [drawing 434] tested on HeLa cervical cancer cell line; recorded EC50 was 77

---

- test_target: UniProtKB P08922
- assay_protocol: In vitro ROS enzymatic reaction assay (HTRF, Cisbio)
- Type: biochemical
- Design: ROS or EGFR enzyme, 0.008 ng/ul
- condition_parameters: ROS kinase, compound at 10 uM; read-out: Kinase Inhib. 10 uM (%)
- Protocol: The ROS enzymatic reactions were carried out with a high throughput screening platform for phosphor-detection of kinase activity. This platform based on homogeneous time resolved fluorescence (HTRF) technology from Cisbio Bioassays, Inc. (Cisbio). […] The reaction was allowed to proceed for 30 minutes at room temperature. An equal volume of detection buffer was then added to the reaction mix.
quantity_name: inhibition at 10 µM (%)
// note: answer is a bare numeric in %

Some compounds with recorded inhibition at 10 µM:
The compound identified as COc1ccc(NC(=O)CCn2ccc3ccccc32)cc1 [drawing 337] registered its inhibition at 10 µM at 29.5

The recorded inhibition at 10 µM for entry Clc1ccc2nc(NCc3ccccn3)nc(-c3ccccc3)c2c1 [drawing 220] equals 25

Reported inhibition at 10 µM of Cc1ccc(NC(=O)CCn2ccc3ccccc32)cc1 [drawing 335] : 27.5

Entry under test: COc1cccc(Nc2nc(N)c(C(=O)c3c(C)[nH]c4ccccc34)s2)c1 [drawing 247] . Its inhibition at 10 µM was 28.5

# compound NC(=O)c1c(NC(=O)[C@H]2CC(=O)N(c3ccccc3)C2)sc2c1CCCC2 [drawing 219] ; its inhibition at 10 µM = 41.5

Continuing:
// field: inhibition at 10 µM; key: O=C(CCn1ccc2ccccc21)Nc1cnccn1 [drawing 340] ; value = 14.3

Entry COc1ccccc1-c1cc(C(F)F)n2ncc(C(=O)NCc3cccnc3)c2n1 [drawing 224] ; inhibition at 10 µM = 35

Quick note, inhibition at 10 µM for O=c1c(O)c(-c2ccc(O)c(O)c2)oc2cc(O)cc(O)c12 [drawing 269] landed at 98.2

The compound listed as O=C1NN=C(c2ccccc2)/C1=C1\OC(c2ccccc2)=CS1 [drawing 255] shows inhibition at 10 µM equal to 77.8

Reported inhibition at 10 µM of CCOC(=O)c1ccc(NC(=O)CCn2ccc3ccccc32)cc1 [drawing 336] : 24.5

Quick note, inhibition at 10 µM for O=C1NCCN1CCN1C(=O)c2ccccc2N[C@H]1c1ccccc1 [drawing 254] landed at 20.3

So, O=C(CCn1ccc2ccccc21)Nc1ccc(F)cc1 [drawing 338] ? Its inhibition at 10 µM was 23.2

get_value(item= COc1ccccc1[C@@H]1C(C#N)=C(N)Oc2n[nH]c(C(F)(F)F)c21 , readout=inhibition at 10 µM) returns 61.6

Value of measured inhibition at 10 µM for the entry Oc1[nH]nc2nnc(-c3ccccc3)c(-c3ccccc3)c12 [drawing 257] : 35.6
